readout_name: melting point (°C)
Respond with the bare value in °C.

For orientation, consider the following solved cases.
[
  {
    "molecule": "Cc1cccc(C(=O)O)c1 [3-Methylbenzoic acid]",
    "units": "°C",
    "melting point": 112
  },
  {
    "molecule": "O=C(O)c1ccccc1 [Benzoic acid]",
    "units": "°C",
    "melting point": 122
  },
  {
    "molecule": "OCCCCCCCCO [1,8-octanediol]",
    "units": "°C",
    "melting point": 60
  },
  {
    "molecule": "CCC1=C(C)N=NC1C (stereo not drawn) [4-ethyl-3,5-dimethyl-1H-pyrazole]",
    "units": "°C",
    "melting point": 43
  },
  {
    "molecule": "O=S(=O)(Cl)c1cccs1 [thiophene-2-sulfonyl chloride]",
    "units": "°C",
    "melting point": 30
  }
]

Recorded melting point (molecule Nc1ccc(C(=O)O)cc1 [4-Aminobenzoic acid] ): 189

Recorded melting point (molecule C[C@@H](Cl)CCl [1,2-Dichloro-Propane] ): -100

Recorded melting point (molecule O=[N+]([O-])c1cc(F)ccc1O [4-fluoro-2-nitrophenol] ): 75

Recorded melting point (molecule Cc1ncc2n1-c1ccc(Cl)cc1C(c1ccccc1F)=NC2 [Midazolam] ): 159

Recorded melting point (molecule Oc1c(Cl)cccc1Cl [2,6-dichlorophenol] ): 67

Recorded melting point (molecule Nc1ccccc1 [aniline] ): -6

---

readout_name: melting point (°C)
Respond with the bare value in °C.

For orientation, consider the following solved cases.
[
  {
    "compound": "Clc1cc(Cl)c(-c2ccccc2)cc1Cl [2,4,5-trichlorobiphenyl]",
    "melting point / °C": 78
  },
  {
    "compound": "Cc1cc(C)c(C)c(CCl)c1C [3-(chloromethyl)-1,2,4,5-tetramethylbenzene]",
    "melting point / °C": 70.5
  },
  {
    "compound": "O=C(O)Cc1cccc([N+](=O)[O-])c1 [3-nitrophenylacetic acid]",
    "melting point / °C": 119
  },
  {
    "compound": "CC(C)(Oc1ccc(CCNC(=O)c2ccc(Cl)cc2)cc1)C(=O)O [Bezafibrate]",
    "melting point / °C": 186
  },
  {
    "compound": "C/C=C/c1ccc(OC)cc1 [trans-anethole]",
    "melting point / °C": 22
  }
]

Recorded melting point (compound O=[N+]([O-])OCC(CO[N+](=O)[O-])O[N+](=O)[O-] [Nitroglycerin] ): 13.5

Recorded melting point (compound CC[C@H]1OC(=O)[C@H](C)[C@@H](O[C@H]2C[C@@](C)(OC)[C@@H](O)[C@H](C)O2)[C@H](C)[C@@H](O[C@@H]2O[C@H](C)C[C@H](N(C)C)[C@H]2O)[C@](C)(O)C[C@@H](C)C(=O)[C@H](C)[C@@H](O)[C@]1(C)O [Erythromycin] ): 191

Recorded melting point (compound NC(=O)c1ccccc1Cl [o-chlorobenzamide] ): 143

Recorded melting point (compound COc1ccc2c(c1)CC2=O [3-methoxybicyclo[4.2.0]octa-1,3,5-trien-7-one] ): 52

Recorded melting point (compound Cc1ccc2[nH]cnc2c1 [5-methylbenzimidazole] ): 115

Recorded melting point (compound C[C@]12CC[C@@H]3c4ccc(O)cc4CC[C@H]3[C@@H]1C[C@@H](O)[C@@H]2O [Estriol] ): 282

---

readout_name: melting point

For orientation, consider the following solved cases.
[
  {
    "compound": "CCSC(SCC)C(OC(C)=O)C(OC(C)=O)C(OC(C)=O)C(COC(C)=O)OC(C)=O (stereo unspecified)",
    "melting point": "112 °C"
  },
  {
    "compound": "Oc1c(F)cc(F)cc1F",
    "melting point": "50 °C"
  },
  {
    "compound": "COc1cc2c(c(OC)c1OC)-c1ccc(OC)c(=O)cc1[C@@H](NC(C)=O)CC2 [Colchicine]",
    "melting point": "156 °C"
  },
  {
    "compound": "CCCCc1ccc(C(=O)O)cc1",
    "melting point": "100 °C"
  }
]

Recorded melting point (compound `C=C(CC)CC` ): -132 °C

Recorded melting point (compound `Cc1ccc(I)cc1` ): 34 °C

Recorded melting point (compound `COc1ccccc1O` ): 30 °C

Recorded melting point (compound Nc1ccccc1 [Aniline] ): -6 °C

Recorded melting point (compound `Brc1ccc2ncsc2c1` ): 53 °C

Recorded melting point (compound `NCCc1ccc(-c2ccccc2)cc1` ): 52 °C

Recorded melting point (compound CC(C(=O)O)c1ccc(-c2ccccc2)c(F)c1 (stereo unspecified) ): 110 °C

---

Known melting point of a selection of compounds
Respond with the bare value in °C.

For orientation, consider the following solved cases.
[
  {
    "compound": "COC1=C(OC)/C(=C\\CN=[N+]=[N-])OC1=O",
    "melting point, °C": 56
  },
  {
    "compound": "Cc1ccc(O)c(-c2ccno2)c1",
    "melting point, °C": 176
  },
  {
    "compound": "Cc1ccc(-c2ccc(/C=C/C(=O)c3ccccc3)o2)cc1 [(2E)-3-[5-(4-Methylphenyl)-2-furyl]-1-phenylprop-2-en-1-one]",
    "melting point, °C": 101
  },
  {
    "compound": "O=C(O)c1ccc(C(=O)OC(=O)c2ccc(C(=O)O)cc2C(=O)O)c(C(=O)O)c1",
    "melting point, °C": 165
  },
  {
    "compound": "COc1ccc2c(c1)c1c3n2CCN(C)C3=NCC1",
    "melting point, °C": 164
  }
]

Recorded melting point (compound `COc1cc(OC)c(C=O)c(OC)c1` ): 121

Recorded melting point (compound `COc1cccc2c1C(=O)c1c(O)c3c(c(O)c1C2=O)C[C@@](O)(C(=O)CO)C[C@@H]3O[C@H]1C[C@H](N)[C@H](O)[C@H](C)O1` ): 204

---

Class assignment keyed on melting point, ranges bin A = under 20 °C, bin B = from 20 °C up to 100 °C, bin C = 100 °C and over

Recorded results for 5 compounds are shown here.
[
  {
    "compound": "N#CCc1csc2ccc(Cl)cc12 [5-chlorobenzo[b]thiophene-3-acetonitrile]",
    "group_label": "bin C"
  },
  {
    "compound": "C=CCI [allyl iodide]",
    "group_label": "bin A"
  },
  {
    "compound": "O=C1CCC(c2ccccc2)CC1 [4-phenylcyclohexanone]",
    "group_label": "bin B"
  },
  {
    "compound": "Nc1cccc2ccc(O)cc12 [8-amino-2-naphthol]",
    "group_label": "bin C"
  },
  {
    "compound": "COc1ccc2c(c1)c(CC(=O)OCC(=O)O)c(C)n2C(=O)c1ccc(Cl)cc1 [acemetacin]",
    "group_label": "bin C"
  }
]

## Task # bin label for O=C(O)C1CC=CCC1 (stereo not given) [3-cyclohexene-1-carboxylic acid]
## Result bin A

## Task # bin label for O=C(Cl)c1cc(Cl)cc(Cl)c1 [3,5-dichlorobenzoyl chloride]
## Result bin B

## Task # bin label for CCCCCCCCCC#N [decanonitrile]
## Result bin A

## Task # bin label for Cc1cccc2ccccc12 [1-methylnaphthalene]
## Result bin A

---

Decide by melting point: equal to or exceeding 80 °C means Fulfilled, less means Not fulfilled.

[
  {
    "compound": "Nc1cccc(O)c1 [3-Aminophenol]",
    "group_label": "Fulfilled"
  }
]

## Task Quick check: does C[C@]12CCC(=O)C=C1CC[C@@H]1[C@@H]2[C@@H](O)C[C@@]2(C)[C@H]1CC[C@]2(O)C(=O)CO [hydrocortisone] have melting point greater than or equal to 80 °C?
## Result Fulfilled

---

Known melting point of a selection of compounds
Respond with the bare value in °C.

[
  {
    "compound": "CC(CCc1ccccc1)NCC(O)c1ccc(O)c(C(N)=O)c1 (configuration not stated) [Labetalol]",
    "melting point (°C)": 196
  },
  {
    "compound": "O=C(O)c1ccc(-c2ccc(O)cc2)cc1 [4'-hydroxybiphenyl-4-carboxylic acid]",
    "melting point (°C)": 294
  },
  {
    "compound": "COc1c(C)cc(B(O)O)cc1C",
    "melting point (°C)": 237
  },
  {
    "compound": "CCOC(=O)Nc1ccc(NCc2ccc(F)cc2)nc1N",
    "melting point (°C)": 114
  },
  {
    "compound": "CN(C)c1ccc(C2CNCCN2)cc1 (configuration not stated)",
    "melting point (°C)": 128
  }
]

Recorded melting point (compound CCOC(=O)c1cnn(C)c1N [ethyl 5-amino-1-methyl-1h-pyrazole-4-carboxylate] ): 100

Recorded melting point (compound `O=C[C@@H](O)[C@@H](O)[C@@H](O)[C@H](O)CO` ): 134

Recorded melting point (compound CC(=O)c1ccc(O)c(C(F)(F)F)c1 [4'-hydroxy-3'-(trifluoromethyl)acetophenone] ): 176

Recorded melting point (compound C1=CC=CC=CC=C1 [1,3,5,7-cyclooctatetraene] ): -27

Recorded melting point (compound `Cc1cc(Br)ccc1Br` ): 6

Recorded melting point (compound `CCC(C)C` ): -160

Recorded melting point (compound `Nc1cccnc1[N+](=O)[O-]` ): 192
